subjectOfTest: T1, human SIRP-α v1 (human, UniProt P78324 31-149)
T1 construct: also called Human v1; Human V1
assayProcedure: SPR

binder	Kd
antibody 16 (antibody, V domains shown, also called S16) VH: DVQLVESGGGVVRPGESLRLSCAVSGFRFSSYAMSWVRQAPGKGLEWVSGISSGGDTYYVDSVKGRFTISRDNSKNTLYLQVNSLTAEDTAIYYCARETWNHLFDYWGLGTLVTVSS VL: ALTQPASVSANLGETVKITCSGGDSSSHYYGWYQQKSPGSAPVTVIYSDDERPSDIPSRFSGSASGSTATLTITGVRVEDEAIYYCGAYDGSTYANTFGAGTTLTVL	< 1 pM
antibody 73 (antibody, V domains shown, also called S73) VH: DVQLVESGGGVVRPGESLRLSCEASGFTFSSNAMSWARQAPGKGLEWVAGISSGSDTYYGDSVKGRLTISRDNSKNILYLQMNSLTAEDTAVYYCARETWNHLFDYWGLGTLVTVSS VL: ALTQPASVSANPGETVKITCSGGIYSSYYYAWYQQKSPGSAPVTLIYSDDKRPSNIPSRFSGSASGSTATLTITGVRAEDEAVYFCGGYDQSSYTNPFGAGTTLTVL	< 1 pM
antibody 66 (antibody, V domains shown, also called AB66; S66) VH: DVQLVESGGGVVRPGESLRLSCAASGFTFSSYAMSWVRQAPGKGLEWLAGISAGGSDTYYIDSVKGRFTISRDNPKNSLYLQMSSLTAEDTAVYYCARETWNHLFDYWGLGTLVTVSS VL: ALTQPASVSANPGETVKITCSGGDYYSTYYAWYQQKSPGSAPVTVIHSDDKRPSDIPSRFSGSASGSAATLIITGVRVEDEAVYYCGGYDGRTYINTFGAGTTLTVL	< 1 pM
